Each recorded value in this set is attributed to PubChem BioAssay (NCI).

- protocolSummary: NCI Yeast Anticancer Drug Screen. Data for the bub3 strain (AID 167)
- conditionContext: S. cerevisiae bub3 mutant strain, at 50.0 µM, hits give high values
- Experimental: Growth inhibition of yeast strains with defined genetic alterations is measured as a screen for potential anti-cancer activity. Selected strains with alterations in DNA damage repair or cell cycle control were exposed to compounds and growth inhibition was measured relative to vehicle treated controls. The strain used in this assay is bub3
This is part of a sample that, as a whole, favours compounds with a hit. Of some 79,000 tested, about 15% had one in any assay.
Measured growth inhibition accompanies every entry in the list below.
Output spec: scalar in %, unitless text.

// worked examples, growth inhibition included
[
  {
    "compound": "CC(C)OC(=O)N[C@@H]1c2ccccc2CC[C@H]1I",
    "growth inhibition, %": 24.7
  },
  {
    "compound": "COc1ccc(/C=N/NC(=O)c2ccccc2OC)cc1",
    "growth inhibition, %": -10.8
  },
  {
    "compound": "N#CC(NNC(=O)Cc1ccccc1)c1ccccc1O (centres undefined)",
    "growth inhibition, %": -21.7
  },
  {
    "compound": "Nc1n[nH]c(=S)s1",
    "growth inhibition, %": -12.3
  },
  {
    "compound": "CC1=NC(C(=O)O)C(C)(C)S1 (centres undefined)",
    "growth inhibition, %": -3.4
  },
  {
    "compound": "CS(=O)(=O)c1ccc(C=O)cc1",
    "growth inhibition, %": -1.4
  },
  {
    "compound": "CSC1NC(c2ccc(Cl)cc2)=C(C#N)C(=O)N1C1OCC(OC(C)=O)C(OC(C)=O)C1OC(C)=O (centres undefined)",
    "growth inhibition, %": -8.6
  },
  {
    "compound": "CCCCCC(=O)NCCCOC",
    "growth inhibition, %": -13.7
  }
]

Could you now look at the following compound, please?
Task: Endpoint output: growth inhibition of Cc1cc(C)c2c(=O)cc(-c3cccc(F)c3)[nH]c2n1 . Value?
Output: -1.3
